Target: T1, human Granzyme B (human, UniProt P10144 21-247)
T1 construct: Captured on a Series S Streptavidin chip for SPR; also called hGranzyme B; GzmB
T1 sequence (P10144 21-247 limits assumed): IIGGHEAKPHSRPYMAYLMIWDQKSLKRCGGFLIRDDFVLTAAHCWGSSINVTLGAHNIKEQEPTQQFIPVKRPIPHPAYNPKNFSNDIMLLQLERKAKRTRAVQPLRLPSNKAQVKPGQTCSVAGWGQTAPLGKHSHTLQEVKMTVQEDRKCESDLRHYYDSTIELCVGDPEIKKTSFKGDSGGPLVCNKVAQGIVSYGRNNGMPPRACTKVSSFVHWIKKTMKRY
Assay: SPR, Biacore 8k+, hGranzyme B captured on SA chip, single cycle kinetics, 1:1 model; Compound 83a, observed m/z 913.2
pKd: −log10 of the molar value. Bridge positions count the residues as written; N and C are the ends. Square brackets hold non-standard residues; d marks the D form. Pro(4R-Me) = C[C@H]1CN[C@H](C(=O)O)C1
endpoint label: pKd

* {CH2CO}-FNFEDQS[Pro(4R-Me)]DTWQPCG-NH2 (thioether N-14) [Compound 83a] | 7.32
